Record form. Attribute: pIC50. Fill in for each entry.
The scale used: pIC50 is minus the common logarithm of the concentration in molar units.

Case O=C1NCCc2c1ccc1[nH]cc(CCNC(=O)N3CCNCC3)c21 , Poly [ADP-ribose] polymerase 2 (Homo sapiens), pIC50 recorded as 7.49

The measured pIC50 that O=C1NCCc2c1ccc1[nH]cc(CCNC(=O)N3CCCNCC3)c21 showed for Poly [ADP-ribose] polymerase 2 (Homo sapiens) is 7.77

Data origin, for the record: ChEMBL document CHEMBL1153049
